target: human CD33 H317A (human, UniProt P20138 18-364); experiment: alanine scan, flow cytometry, HEK293-T;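 note: antibody binding to each alanine-substituted CD33 mutant expressed transiently in HEK293-T, read as fluorescence minus background, mean of duplicates, relative to wild-type CD33 set as 100%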
Sequence (P20138 18-364 H317A limits assumed): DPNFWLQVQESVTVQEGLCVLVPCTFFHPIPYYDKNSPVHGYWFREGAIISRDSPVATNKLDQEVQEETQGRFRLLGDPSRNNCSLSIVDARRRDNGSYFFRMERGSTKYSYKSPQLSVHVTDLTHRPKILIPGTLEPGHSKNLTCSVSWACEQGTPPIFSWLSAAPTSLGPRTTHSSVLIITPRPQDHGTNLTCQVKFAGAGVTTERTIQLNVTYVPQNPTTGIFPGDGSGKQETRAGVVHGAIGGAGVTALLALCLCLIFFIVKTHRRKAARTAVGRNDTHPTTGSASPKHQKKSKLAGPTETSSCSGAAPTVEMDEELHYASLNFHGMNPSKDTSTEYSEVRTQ
Please provide measured Mean % WT Binding for the entries that follow.
Numbers only, in % WT binding.

Below are worked cases with known answers.
[
  {
    "Binder": "Refmab #4 (antibody, V domains shown, The alanine scan used IgG or Fab) VH: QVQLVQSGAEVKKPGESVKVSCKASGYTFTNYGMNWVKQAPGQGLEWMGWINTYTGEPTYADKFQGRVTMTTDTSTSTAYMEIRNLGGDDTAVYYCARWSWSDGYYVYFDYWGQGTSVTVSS VL: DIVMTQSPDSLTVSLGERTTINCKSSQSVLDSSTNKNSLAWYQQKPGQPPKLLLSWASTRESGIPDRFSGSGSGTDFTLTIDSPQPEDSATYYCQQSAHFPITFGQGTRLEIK",
    "Value Units": "% WT binding",
    "Recorded Measurement": 82.6
  },
  {
    "Binder": "Refmab #3 (antibody, V domains shown, The alanine scan used IgG or Fab) VH: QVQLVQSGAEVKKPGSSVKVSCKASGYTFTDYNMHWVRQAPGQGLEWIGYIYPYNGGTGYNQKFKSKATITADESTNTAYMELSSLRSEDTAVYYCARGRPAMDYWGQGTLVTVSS VL: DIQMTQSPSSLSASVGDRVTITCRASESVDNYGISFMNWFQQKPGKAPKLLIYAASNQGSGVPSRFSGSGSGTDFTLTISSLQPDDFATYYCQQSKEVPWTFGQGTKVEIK",
    "Value Units": "% WT binding",
    "Recorded Measurement": 157
  }
]

Q. Returns the measured Mean % WT Binding for the input binder. Input: Refmab #1 (antibody, V domains shown, The alanine scan used IgG or Fab; also called hP67.6) VH: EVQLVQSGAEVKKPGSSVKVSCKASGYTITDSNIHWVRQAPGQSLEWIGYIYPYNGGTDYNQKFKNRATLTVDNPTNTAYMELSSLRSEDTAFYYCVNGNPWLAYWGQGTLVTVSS VL: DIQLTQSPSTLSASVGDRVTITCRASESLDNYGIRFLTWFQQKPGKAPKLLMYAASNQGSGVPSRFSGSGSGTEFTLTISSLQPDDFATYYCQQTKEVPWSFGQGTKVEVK
A. 80.8
